- System: colorectal cancer cell lines (e.g. DLD-1, HCT 116, SW620, HCT-15, HCT-8, RKO)
- Experimental Details: Cell based assay, cell viability (CellTiter-Glo), colorectal cancer cell lines
- Measurement Parameters: Homo sapiens, SW-620, SW620, 72 hours treatment, read-out: IC50, colorectal cancer cell line SW620
Provide the recorded IC50 for the entries that follow.

Solved cases (6 shown):
>>> print(df.to_string())
                                   compound  measured_result
0  CC(=O)c1c([S+]([O-])Cc2ccc(S(F)(F)(F)(F)F)cc2)[nH]c2c(Br)ccc(Cl)c2c1=O (stereo not shown)          1660 nM
1  CC(=O)c1c([S+]([O-])Cc2ccccc2C#N)[nH]c2c(Br)ccc(Cl)c2c1=O (stereo not shown)          1160 nM
2  CC(=O)c1c([S+]([O-])Cc2ccccc2)nc2c(Br)ccc(Cl)c2c1O (stereo not shown)        > 2000 nM
3  CC(=O)c1c([S+](C)[O-])n(C(=O)c2ccc(Br)cc2)c2c(Br)ccc(Cl)c2c1=O (stereo not shown)          1360 nM
4  CC(=O)c1c([S+]([O-])Cc2ccc(C(=O)c3ccccc3)cc2)[nH]c2c(Br)ccc(Cl)c2c1=O (stereo not shown)        > 2000 nM
5  CC(=O)c1c([S+]([O-])Cc2ccccc2)n(C(=O)c2ccc(Br)cc2)c2c(Br)ccc(Cl)c2c1=O (stereo not shown)        > 2000 nM

# input for lookup
Report IC50 for CSc1c(C(C)=O)c(=O)c2c(Cl)ccc(Br)c2n1S(=O)(=O)c1ccc(C(C)(C)C)cc1 please.
> 2000 nM

The reported measurements were obtained from patent US11464770B2.
